Hello, the source for this data is patent US20240270821A1, in case you need it.

- System: human GcgR (Homo sapiens, UniProt P47871)
- Sequence (P47871 26-477): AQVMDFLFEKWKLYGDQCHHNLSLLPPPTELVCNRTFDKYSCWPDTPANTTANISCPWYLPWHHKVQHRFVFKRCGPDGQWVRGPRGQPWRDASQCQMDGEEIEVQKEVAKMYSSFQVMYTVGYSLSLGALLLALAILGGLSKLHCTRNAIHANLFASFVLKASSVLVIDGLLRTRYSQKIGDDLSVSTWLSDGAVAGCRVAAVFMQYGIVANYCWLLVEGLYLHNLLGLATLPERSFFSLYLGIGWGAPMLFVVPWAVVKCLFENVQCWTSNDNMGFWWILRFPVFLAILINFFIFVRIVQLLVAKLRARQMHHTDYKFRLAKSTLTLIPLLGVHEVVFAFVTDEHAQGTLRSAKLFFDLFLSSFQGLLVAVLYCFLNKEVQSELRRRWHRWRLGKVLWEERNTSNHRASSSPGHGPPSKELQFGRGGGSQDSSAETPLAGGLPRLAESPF
- Assay info: Functional cAMP activity in the presence of 1% HSA
- Assay type: cell-based
- Applied conditions: read-out: cAMP Rel EC50, hGcgR
Starred links: 1 amine or outer side, 2 acyl side, 3 side chain; linkers in the order of their positions; H or OH if unused. Non-standard residues stand in square brackets, D forms with d. Groups on a side chain read outwards from the residue. No end group written: not given here. *: point of attachment. C20 diacid = O=C(O)CCCCCCCCCCCCCCCCCCC(=O)*; C18 diacid = O=C(O)CCCCCCCCCCCCCCCCC(=O)*; Phe(4-CN) = N#Cc1ccc(C[C@H](N)C(=O)O)cc1; αMePhe(2-F) = C[C@](N)(Cc1ccccc1F)C(=O)O; γGlu = O=C(O)[C@H](CCC(=O)[*:2])N[*:1]; αMe4Pal = C[C@](N)(Cc1ccncc1)C(=O)O; αMeY = C[C@](N)(Cc1ccc(O)cc1)C(=O)O; 4Pal = N[C@@H](Cc1ccncc1)C(=O)O; αMeL = CC(C)C[C@](C)(N)C(=O)O; αMeS = C[C@](N)(CO)C(=O)O; Orn = NCCC[C@H](N)C(=O)O; AEEA = NCCOCCOCC(=O)O; Aib = CC(C)(N)C(=O)O
Reported property: pEC50
// pEC50: -log10(molar conc.)

H-Y[Aib]QGTFTSD[4Pal]SQ[αMeL]LDKK([AEEA-γGlu-C18 diacid])AQ[αMe4Pal]AFIEYLIE[Aib]GPSSGAPPPSGT-NH2 [Example 834]
6.27
H-Y[Aib]QGTFTSD[Phe(4-CN)]S[Orn][αMeL]LDKK([AEEA-γGlu-C18 diacid])AQ[Aib]AFIEYLLE[Aib]GHSSGAPPPSGS-NH2 [Example 190]
6.48
H-Y[Aib]QGTFTSD[4Pal]SQ[αMeL]LDKK([γGlu-γGlu-C18 diacid])AQ[αMe4Pal]AFIEYLIE[Aib]GPSSGAPPPSGSEEE-NH2 [Example 900]
6.05
Y[Aib]QGTFTSDFSK[αMeL]LDKK([AEEA-γGlu-C20 diacid])AQ[Aib]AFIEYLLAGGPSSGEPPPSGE-NH2 [Example 2]
5.79
H-Y[Aib]QGT[αMePhe(2-F)]TSD[4Pal][αMeS]I[αMeL]LD[Orn]K([AEEA-γGlu-C18 diacid])AQ[αMe4Pal]EFI[dE][αMeY]LVEGGPSSGAPPPSGE-NH2 [Example 749]
7.55

[in] Query (substance): H-Y[Aib]QGT[αMePhe(2-F)]TSD[4Pal][αMeS]I[αMeL]LD[Orn]K([γGlu-γGlu-C18 diacid])AQ[Aib][Orn]FI[dE][αMeY]LAEGGPSSGEPPPSGAEE-NH2 [Example 591] ; field requested: pEC50
[out] 6.63

###

- System: hGLP-1R (Homo sapiens, UniProt P43220)
- Sequence (P43220 24-463): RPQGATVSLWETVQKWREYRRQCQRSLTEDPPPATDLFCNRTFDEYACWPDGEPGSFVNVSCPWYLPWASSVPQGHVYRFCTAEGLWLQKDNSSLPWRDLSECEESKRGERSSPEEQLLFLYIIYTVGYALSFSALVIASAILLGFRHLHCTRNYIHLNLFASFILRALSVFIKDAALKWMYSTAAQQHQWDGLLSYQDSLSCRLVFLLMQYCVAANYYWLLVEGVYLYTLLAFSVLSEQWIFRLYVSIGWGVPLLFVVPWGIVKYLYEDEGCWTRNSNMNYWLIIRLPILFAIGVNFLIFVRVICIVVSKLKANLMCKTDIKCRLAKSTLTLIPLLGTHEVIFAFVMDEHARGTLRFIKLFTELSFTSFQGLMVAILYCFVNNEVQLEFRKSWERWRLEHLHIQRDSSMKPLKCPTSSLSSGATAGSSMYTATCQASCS
- Assay info: Functional cAMP activation in the presence of 0.1% casein (no HSA);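 further: intracellular cAMP rise after 30 min at 37 °C read by HTRF, normalized between buffer only (0%) and maximal control ligand (100%), four-parameter variable-slope fit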
- Assay type: cell-based
- Applied conditions: read-out: Relative cAMP EC50, hGLP-1R
Starred links: 1 amine or outer side, 2 acyl side, 3 side chain; linkers in the order of their positions; H or OH if unused. Non-standard residues stand in square brackets, D forms with d. Groups on a side chain read outwards from the residue. No end group written: not given here. *: point of attachment. C18 diacid = O=C(O)CCCCCCCCCCCCCCCCC(=O)*; αMePhe(2-F) = C[C@](N)(Cc1ccccc1F)C(=O)O; γGlu = O=C(O)[C@H](CCC(=O)[*:2])N[*:1]; αMe4Pal = C[C@](N)(Cc1ccncc1)C(=O)O; αMeY = C[C@](N)(Cc1ccc(O)cc1)C(=O)O; 4Pal = N[C@@H](Cc1ccncc1)C(=O)O; αMeL = CC(C)C[C@](C)(N)C(=O)O; αMeS = C[C@](N)(CO)C(=O)O; Orn = NCCC[C@H](N)C(=O)O; AEEA = NCCOCCOCC(=O)O; Aib = CC(C)(N)C(=O)O
Parameter: pEC50. Scope: all listed entries.
// pEC50: -log10(molar conc.)

# example entries with known answers
H-Y[Aib]QGT[αMePhe(2-F)]TSD[4Pal][αMeS]I[αMeL]LD[Orn]K([AEEA-γGlu-C18 diacid])AQ[αMe4Pal]EFI[dE][αMeY]LIEGGPSSGEPPPSGS-NH2 [Example 710]
9.56
Y[Aib]QGT[αMePhe(2-F)]TSD[4Pal][αMeS]ILLD[Orn]K([γGlu-γGlu-C18 diacid])AQ[Aib][Orn]FI[dE]YLIEGGPSSGEPPPEGEEE-NH2 [Example 606]
9.10
H-Y[Aib]QGT[αMePhe(2-F)]TSD[4Pal][αMeS]I[αMeL]LD[Orn]K([γGlu-γGlu-C18 diacid])AQ[Aib][Orn]FI[dE][αMeY]LSEGGPSSGEPPPSGGEE-NH2 [Example 568]
9.01
H-Y[Aib]QGT[αMePhe(2-F)]TSD[4Pal]SI[αMeL]LD[Orn]K([γGlu-γGlu-C18 diacid])AQ[αMe4Pal][Orn]FI[dE][αMeY]LIEGGPSSGEPPPSGE-NH2 [Example 682]
9.67

Next:
[in] Query (substance): H-Y[Aib]QGT[αMePhe(2-F)]TSD[4Pal]SILLDKK([γGlu-γGlu-C18 diacid])AQ[Aib]AFIE[4Pal]LEEGGPSSGAPPPSGTE-NH2 [Example 550] ; field requested: pEC50
[out] 8.67
